Assay: Passage on the culture model of the blood-brain barrier (bidirectional permeability)
Assay type: in vitro ADME, rat
Conditions: rat, 10 μM; AB (from blood to brain) direction; average, n=6; read-out: Papp A-B Average
readout-kind: Papp A→B at 60 min, 10 μM (×10⁻⁶ cm/s)
Record the value in ×10⁻⁶ cm/s, omitting the unit from your answer.

So what's the measured Papp A→B at 60 min, 10 μM for this one? Cl.O=C(O)c1nc2ccccc2c(O)c1CN1CCOCC1 [Example 5]
11

Now try CN(C)CCNC(=O)c1nc2ccccc2c(O)c1CN1CCOCC1 [Example 16] .
36.9

Now try CN(C)CCNC(=O)c1cc(O)c2ccccc2n1.Cl [comparative 24/2, reference compound] .
6.7

Now try O=C(NCCN1CCCC1)c1nc2ccccc2c(O)c1CN1CCOCC1 [Example 20] .
18.6

Now try Cl.O=C(NCCN1CCCC1)c1cc(O)c2ccccc2n1 [comparative 24/1, reference compound] .
5.7

----------
Assay: Passage on the culture model of the blood-brain barrier (bidirectional permeability)
Assay type: in vitro ADME, rat
Conditions: rat, 10 μM; AB (from blood to brain) direction; sampling at 60 minutes; single replicates; read-out: Papp A-B 60′
Classify as follows. Reported Papp A→B at 60 min, 10 μM greater than or equal to 10 ×10⁻⁶ cm/s: condition met. Reported Papp A→B at 60 min, 10 μM below: condition not met.

Say whether CN(C)CCNC(=O)c1cc(O)c2ccccc2n1.Cl [comparative 24/2, reference compound] shows Papp A→B at 60 min, 10 μM of 10 ×10⁻⁶ cm/s or more.
condition not met

Now try O=C(NCCN1CCCC1)c1nc2ccccc2c(O)c1CN1CCOCC1 [Example 20] .
condition met

Now try CN(C)CCNC(=O)c1nc2ccccc2c(O)c1CN1CCOCC1 [Example 16] .
condition met

Now try Cl.O=C(O)c1nc2ccccc2c(O)c1CN1CCOCC1 [Example 5] .
condition met

Now try Cl.O=C(NCCN1CCCC1)c1cc(O)c2ccccc2n1 [comparative 24/1, reference compound] .
condition not met

----------
Test: Passage on the culture model of the blood-brain barrier (bidirectional permeability)
Type: in vitro ADME, rat
Details: rat, 10 μM; BA (from brain to blood) direction; average, n=6; read-out: Papp B-A Average
Mark yes only for Papp B→A at 60 min, 10 μM values smaller than 9 ×10⁻⁶ cm/s; exact matches and larger values are no.

Hi there! Is Papp B→A at 60 min, 10 μM for `CN(C)CCNC(=O)c1nc2ccccc2c(O)c1CN1CCOCC1` below 9 ×10⁻⁶ cm/s, do you know?
no

Now try CN(C)CCNC(=O)c1cc(O)c2ccccc2n1.Cl [comparative 24/2, reference compound] .
yes

Now try `O=C(NCCN1CCCC1)c1nc2ccccc2c(O)c1CN1CCOCC1` .
no

Now try `Cl.O=C(O)c1nc2ccccc2c(O)c1CN1CCOCC1` .
yes

----------
Assay: Passage on the culture model of the blood-brain barrier (bidirectional permeability)
Type: in vitro ADME, rat
Conditions: rat, 10 μM; BA (from brain to blood) direction; sampling at 60 minutes; single replicates; read-out: Papp B-A 60′
Mark Criterion met only for Papp B→A at 60 min, 10 μM values smaller than 10 ×10⁻⁶ cm/s; exact matches and larger values are Criterion not met.

Hi there! Is Papp B→A at 60 min, 10 μM for Cl.O=C(NCCN1CCCC1)c1cc(O)c2ccccc2n1 [comparative 24/1, reference compound] below 10 ×10⁻⁶ cm/s, do you know?
Criterion not met

Now try Cl.O=C(O)c1nc2ccccc2c(O)c1CN1CCOCC1 [Example 5] .
Criterion met

Now try O=C(NCCN1CCCC1)c1nc2ccccc2c(O)c1CN1CCOCC1 [Example 20] .
Criterion not met

Now try CN(C)CCNC(=O)c1nc2ccccc2c(O)c1CN1CCOCC1 [Example 16] .
Criterion not met

Now try CN(C)CCNC(=O)c1cc(O)c2ccccc2n1.Cl [comparative 24/2, reference compound] .
Criterion met
